- target.desc: E. coli CsgA (Escherichia coli)
- Construct: made in house; host or cells: E. coli NEB 3016 slyD::kan, pET11d
- assay.procedure: In vitro ThioflavinT assay of CsgA aggregation (CsgA ThT Assay)
- Format: biochemical
- condition.label: read-out: CsgA ThT Assay (2 μM CsgA) % Control Bmax 25 μM, mean Bmax as percentage of DMSO control; CsgA 2 μM, white plates; compound 25 μM
measurement.kind: remaining activity at 25 µM (%)
Give the value, in units of %, as a plain number.

CC(C)N1CC(C(=O)O)n2c1c(-c1cccc(C(F)(F)F)c1)c(Cc1cccc3ccccc13)c(Cl)c2=O (stereo not shown) [Compound 179]: 65
O=C(O)[C@H]1CN(Cc2ccccc2)c2c(-c3cccc(C(F)(F)F)c3)c(Cc3cccc4ccccc34)c(Cl)c(=O)n21 (single isomer, unassigned) [Compound 004b]: 54
O=C(O)C1CNc2c(-c3cccc(C(F)(F)F)c3)c(C(F)(F)c3cccc4ccccc34)cc(=O)n21 (stereo not shown) [Compound 134]: 92
CCCN1CC(C(=O)O)n2c(cc(Cc3cccc4ccccc34)c(NC3CCCC3)c2=O)S1(=O)=O (stereo not shown) [Compound 006]: 66
CCCN1CC(C(=O)O)n2c(c(-c3cccc(C(F)(F)F)c3)c(Cc3cccc4ccccc34)c(C(N)=O)c2=O)S1(=O)=O (stereo not shown) [Compound 172]: 26

Input line: Given the compound O=C(O)C1CN(Cc2ccccc2)c2c(-c3cccc(C(F)(F)F)c3)c(CN3CCCCC3)c(Cl)c(=O)n21 (stereo not shown) [Compound 218] , what is its reported remaining activity at 25 µM?
Output line: 115

Input line: Next compound: COc1cccc(CN2CC(C(=O)O)n3c2c(-c2cccc(C(F)(F)F)c2)c(Cc2cccc4ccccc24)c(Cl)c3=O)c1 (stereo not shown) [Compound 191]
Output line: 58

Input line: Next compound: O=C(O)C1CN(Cc2ccccc2)c2c(-c3cccc(C(F)(F)F)c3)c(Cc3ccnc4ccccc34)c(Cl)c(=O)n21 (stereo not shown) [Compound 206]
Output line: 64

Input line: Next compound: O=C(O)C1CN(Cc2ccccc2)c2c(-c3cccc(C(F)(F)F)c3)c(Cc3cncc4ccccc34)c(Cl)c(=O)n21 (stereo not shown) [Compound 210]
Output line: 79

Input line: Next compound: CCc1c(Cc2cccc3ccccc23)c(-c2cccc(C(F)(F)F)c2)c2n(c1=O)C(C(=O)O)CN2Cc1ccccc1 (stereo not shown) [Compound 140]
Output line: 35

---

inhibition at 100 µM values by entry
- target.desc: human α-synuclein (Homo sapiens, UniProt P37840)
- Construct: the full-length gene for untagged human α-synuclein was inserted; made in house; host or cells: E. coli BL21(DE3), plasmid derived from pT7 or pET11a
- assay.procedure: Cell-free Thioflavin T assay of α-synuclein aggregation (αSyn ThT Assay)
- Type: biochemical
- condition.label: class symbol; αSyn 50 μM, compounds 100 μM; read-out: αSyn ThT Assay % inhibition, activity range

CN1CC(C(=O)O)n2c(c(-c3cccc(C(F)(F)F)c3)c(Cc3cccc4ccccc34)c(C(=O)NC(C)(C)C)c2=O)S1(=O)=O (stereo not shown): > 60%
CCc1c(Cc2cccc3ccccc23)c(-c2cccc(C(F)(F)F)c2)c2n(c1=O)C(C(=O)O)CN2Cc1ccc(OC)cc1 (stereo not shown): 31 to 60%
CC(C)N1CC(C(=O)O)n2c(c(-c3cccc(C(F)(F)F)c3)c(Cc3cccc4ccccc34)c(C(N)=O)c2=O)S1(=O)=O (stereo not shown): > 60%
CC(C)(C)c1ccc(CCN2CC(C(=O)O)n3c2c(-c2cccc(C(F)(F)F)c2)c(Cc2cccc4ccccc24)c(Cl)c3=O)cc1 (stereo not shown): 31 to 60%
CCCN1CC(C(=O)O)n2c(c(-c3cccc(C(F)(F)F)c3)c(Cc3cccc4ccccc34)c(NC(=O)CC)c2=O)S1(=O)=O (stereo not shown): 31 to 60%
CCCCN1CC(C(=O)O)n2c1c(-c1cccc(C(F)(F)F)c1)c(Cc1cccc3ccccc13)c(Cl)c2=O (stereo not shown): 31 to 60%

Input line: Given the compound COc1ccc(CN2CC(C(=O)O)n3c2c(-c2cccc(C(F)(F)F)c2)c(Cc2cccc4ccccc24)c(Cl)c3=O)cc1 (stereo not shown) , what is its reported inhibition at 100 µM?
Output line: 31 to 60%

Input line: Next compound: O=C(O)C1CN(CCCCCCN2CC(C(=O)O)n3c2c(-c2cccc(C(F)(F)F)c2)c(Cc2cccc4ccccc24)c(Cl)c3=O)c2c(-c3cccc(C(F)(F)F)c3)c(Cc3cccc4ccccc34)c(Cl)c(=O)n21 (stereo not shown)
Output line: > 60%

Input line: Next compound: O=C(O)C1CN(Cc2cccnc2)c2c(-c3cccc(C(F)(F)F)c3)c(Cc3cccc4ccccc34)c(Cl)c(=O)n21 (stereo not shown)
Output line: 31 to 60%

Input line: Next compound: O=C(O)C1CN(CC2CCCC2)c2c(-c3cccc(C(F)(F)F)c3)c(Cc3cccc4ccccc34)c(Cl)c(=O)n21 (stereo not shown)
Output line: 31 to 60%

Input line: Next compound: O=C(O)C1CN(Cc2ccccc2)c2c(-c3cccc(C(F)(F)F)c3)c(Cc3cccc4ccccc34)c(Cl)c(=O)n21 (stereo not shown)
Output line: 31 to 60%

Input line: Next compound: COc1ccccc1CN1CC(C(=O)O)n2c1c(-c1cccc(C(F)(F)F)c1)c(Cc1cccc3ccccc13)c(Cl)c2=O (stereo not shown)
Output line: 31 to 60%

Input line: Next compound: O=C(O)C1CN(Cc2ccncc2)c2c(-c3cccc(C(F)(F)F)c3)c(Cc3cccc4ccccc34)c(Cl)c(=O)n21 (stereo not shown)
Output line: 11 to 30%

Input line: Next compound: CC(C)CNC(=O)c1c(Cc2cccc3ccccc23)c(-c2cccc(C(F)(F)F)c2)c2n(c1=O)C(C(=O)O)CN(C)S2(=O)=O (stereo not shown)
Output line: > 60%

Input line: Next compound: O=C(O)C1CN(Cc2ccccc2)c2c(-c3cccc(C(F)(F)F)c3)c(C(F)(F)c3cccc4ccccc34)c(Br)c(=O)n21 (stereo not shown)
Output line: 31 to 60%

Input line: Next compound: O=C(O)C1CN(CC2CCCCC2)c2c(-c3cccc(C(F)(F)F)c3)c(Cc3cccc4ccccc34)c(Cl)c(=O)n21 (stereo not shown)
Output line: > 60%

---

remaining activity at 25 µM values by entry
- target.desc: E. coli CsgA (Escherichia coli, UniProt P28307)
- Construct: made in house; host or cells: E. coli NEB 3016 slyD::kan, pET11d
- Sequence (P28307 23-151): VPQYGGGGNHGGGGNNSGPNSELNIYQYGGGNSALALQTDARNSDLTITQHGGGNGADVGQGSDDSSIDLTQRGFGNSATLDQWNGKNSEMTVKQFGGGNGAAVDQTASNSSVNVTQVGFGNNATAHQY
- assay.procedure: In vitro ThioflavinT assay of CsgA aggregation (CsgA ThT Assay)
- Format: biochemical
- condition.label: read-out: CsgA ThT Assay (2 μM CsgA) % Control Bmax 25 μM, mean Bmax as percentage of DMSO control; CsgA 2 μM, white plates; compound 25 μM
Give the value, in units of %, as a plain number.

Worked examples follow.
CCCN1CC(C(=O)O)n2c(c(-c3cccc(C(F)(F)F)c3)c(Cc3cccc4ccccc34)c(Cl)c2=O)S1(=O)=O (stereo not drawn): 87
CCCN1CC(C(=O)O)n2c(c(-c3cccc(C(F)(F)F)c3)c(Cc3cccc4ccccc34)c(O)c2=O)S1(=O)=O (stereo not drawn): 80

For the next question, use this molecule.
Input line: Given the molecule CC(C)(C)c1ccc(CN2CC(C(=O)O)n3c2c(-c2cccc(C(F)(F)F)c2)c(Cc2cccc4ccccc24)c(Cl)c3=O)cc1 (stereo not drawn) , what is its reported remaining activity at 25 µM?
Output line: 46

---

- target.desc: human α-synuclein (Homo sapiens)
- Construct: the full-length gene for untagged human α-synuclein was inserted; made in house; host or cells: E. coli BL21(DE3), plasmid derived from pT7 or pET11a
- assay.procedure: Cell-free Thioflavin T assay of α-synuclein aggregation (αSyn ThT Assay)
- Assay type: biochemical
- condition.label: mean percent inhibition relative to DMSO control; αSyn 50 μM, compounds 100 μM; read-out: αSyn ThT Assay % inhibition
inhibition at 100 µM values by entry
Give the value, in units of %, as a plain number.

Worked examples follow.
CC(C)CN1CC(C(=O)O)n2c1c(-c1cccc(C(F)(F)F)c1)c(Cc1cccc3ccccc13)c(Cl)c2=O (stereo not drawn): 43
COc1cc(Cc2c(-c3cccc(C(F)(F)F)c3)c3n(c(=O)c2Cl)C(C(=O)O)CN3Cc2ccccc2)c2ccccc2c1 (stereo not drawn): 70
CCCCN1CC(C(=O)O)n2c(c(-c3cccc(C(F)(F)F)c3)c(Cc3cccc4ccccc34)c(C(N)=O)c2=O)S1(=O)=O (stereo not drawn): 97
COc1ccccc1CN1CC(C(=O)O)n2c1c(-c1cccc(C(F)(F)F)c1)c(Cc1cccc3ccccc13)c(Cl)c2=O (stereo not drawn): 45
COc1ccc(CN2CC(C(=O)O)n3c2c(-c2cccc(C(F)(F)F)c2)c(Cc2cccc4ccccc24)c(Cl)c3=O)cc1 (stereo not drawn): 59

For the next question, use this molecule.
Input line: Given the molecule N#Cc1ccc(CN2CC(C(=O)O)n3c2c(-c2cccc(C(F)(F)F)c2)c(Cc2cccc4ccccc24)c(Cl)c3=O)cc1 (stereo not drawn) , what is its reported inhibition at 100 µM?
Output line: 32
